Origin of measurements: PubChem BioAssay AID686978

- experiment: qHTS for Inhibitors of human tyrosyl-DNA phosphodiesterase 1 (TDP1): qHTS in cells in absence of CPT; further: nearly all actives have a fitted effect of over 55% in size
- conditionsUsed: DT40 Tdp1-/- hTDP1 cells, no CPT, ATP luminescence, 48 h
In all, about 420,000 compounds went through this assay and about 64,000 (15%) were called active. About 27% were inconclusive and are not listed. The call rests on the fitted dose curve; in most records, active means well fitted inhibition curve with a large enough effect; inconclusive means small, poorly fitted or top-dose-only effect; inactive means flat fitted curve, though single readings scatter. The list is a sample of the results.
One label from this list, please: True = active, False = inactive

Illustrative cases are given below, each with its answer.
CS(=O)(=O)NC(=O)CCC/C=C\C[C@H]1C(=O)C[C@@H](O)[C@@H]1/C=C/[C@H](O)COc1ccccc1 | False
COc1ccc(-c2ccc(C(=O)NCCN3CCOCC3)c3occc23)c(C)c1 | True
Cc1cc(C(=O)N2CCC(C(=O)O)CC2)c(C(F)(F)F)o1 | False
Cc1ccc(Cl)cc1-c1ccc(/C=N/n2cnnc2)o1 | False
O=C(Cc1ccc(Br)cc1)NCCN1CCOCC1 | False
CC(=O)NN=C(C)c1ccc(NC(=O)C2CC2)cc1 | False

*Q* Recorded call for CNC(=O)CSc1nnnn1-c1ccc(C)cc1C ?
*A* False

*Q* Recorded call for Cc1cc(C)cc(NC(=O)C2CCN(c3nc(C)cc(C)n3)CC2)c1 ?
*A* False

*Q* Recorded call for CC1CC(C)CN(C/C=C/c2ccccc2[N+](=O)[O-])C1 (stereo unspecified) ?
*A* False

*Q* Recorded call for N#CCCn1ncc2ccccc21 ?
*A* False

*Q* Recorded call for O=C(CCn1nnc2ccccc2c1=O)N[C@@H](Cc1c[nH]c2ccccc12)C(=O)O ?
*A* False
